READOUT LABEL: logP
Write no unit; give the number alone.

[
  {
    "COMPOUND": "CCOC(=O)c1ccc(OCC(OC(=O)n2ccnc2)C(C)(C)C)cc1 (stereo not drawn)",
    "logP": 4.12
  }
]

*Q* Need logP of COc1cccc(C(=O)NC2CCN(Cc3ccc(F)cc3)CC2)c1OC , thanks.
*A* 2.87

*Q* Entry CC(=O)NN1CC=CCC1 : reported logP = ?
*A* 0.52

----------
READOUT LABEL: logP
Keep the answer to the number alone.

[
  {
    "COMPOUND": "COCN(C#N)C1CC(OC2CC(O)(C(C)=O)Cc3c(O)c4c(c(O)c32)C(=O)c2c(OC)cccc2C4=O)OC(C)C1O (stereo unspecified)",
    "logP": 2.64
  },
  {
    "COMPOUND": "O=C(Nc1ccn(C2CC(O)C(CO)O2)c(=O)n1)c1ccccc1 (stereo unspecified)",
    "logP": 0.67
  },
  {
    "COMPOUND": "Clc1ccc(-c2c(Cl)ccc(Cl)c2Cl)cc1Cl",
    "logP": 6.22
  },
  {
    "COMPOUND": "CCC(=O)OCC1OC(n2cc(I)c(=O)[nH]c2=O)CC1O (stereo unspecified)",
    "logP": 0.68
  }
]

*Q* Value lookup for logP; key = Nc1c(Cl)c(Cl)c(Cl)c(Cl)c1Cl
*A* 4.82

*Q* Entry under review: NCCc1cn2ccccc2n1 . Reported logP?
*A* 0.59
